test system: 5HT uptake; assay: Inhibition of 5HT uptake in vitro (synaptosomal uptake of 3H-serotonin, rat cortical synaptosomes); format: biochemical, rat (male Sprague-Dawley); details: 50 nM 3H-5HT, cortical synaptosomes, 37° C., 5 min
Counter-ions that a name gives are not always drawn.
Returns: string. Value is Criterion met if measured IC50 is below 90 nM, and Criterion not met if it is greater than or equal to it.

1. Cc1ccc(OCCC(c2ccccc2)N(C)C)c2ccccc12 (stereo not shown) [Example 2, oxalate]    Criterion met
2. CN(C)C(CCOc1cccc2ccccc12)c1ccccc1 (single isomer, unassigned) [Example 37]    Criterion met
3. COc1cccc(C(CCOc2cccc3ccccc23)N(C)C)c1 (stereo not shown) [Example 19, oxalate]    Criterion met
4. CN(C)C(CCOc1cccc2ccccc12)c1ccccc1 (stereo not shown) [Example 27, oxalate]    Criterion met
5. Cc1ccccc1C(CCOc1cccc2ccccc12)N(C)C (stereo not shown) [Example 30, oxalate]    Criterion met
6. CN(C)C(CCOc1cccc2ccccc12)c1cccc(C(F)(F)F)c1 (stereo not shown)    Criterion not met
7. COc1ccccc1C(CCOc1cccc2ccccc12)N(C)C (stereo not shown) [Example 21, oxalate]    Criterion met
8. COc1ccc(OCCC(c2ccccc2)N(C)C)c2ccccc12 (stereo not shown) [Example 5, oxalate]    Criterion not met
9. COc1cccc(C(N)CCOc2cccc3ccccc23)c1 (stereo not shown) [Example 18, hydrochloride]    Criterion met
10. Cc1cccc(C(CCOc2cccc3ccccc23)N(C)C)c1 (stereo not shown) [Example 32, oxalate]    Criterion met
11. CN(C)C(CCOc1cccc2ccccc12)c1ccccc1 (single isomer, unassigned) [Example 36]    Criterion met
12. Cc1ccc(C(CCOc2cccc3ccccc23)N(C)C)cc1 (stereo not shown) [Example 26, oxalate]    Criterion met
13. NC(CCOc1cccc2ccccc12)c1ccccc1Cl (stereo not shown) [Example 10, oxalate]    Criterion met
14. CNC(CCOc1cccc2ccccc12)c1ccc2c(c1)OCO2 (stereo not shown) [Example 24, oxalate]    Criterion met
15. NC(CCOc1cccc2ccccc12)c1cccc(Cl)c1 (stereo not shown) [Example 12, oxalate]    Criterion not met
16. CN(C)C(CCOc1cccc2ccccc12)c1ccc(Cl)cc1 (stereo not shown) [Example 15, oxalate]    Criterion not met
17. CNC(CCOc1cccc2ccccc12)c1ccccc1 (stereo not shown) [Example 33, oxalate]    Criterion met
18. CN(C)C(CCOc1cccc2ccccc12)c1cccc(Cl)c1 (stereo not shown) [Example 13, oxalate]    Criterion met
19. COc1ccc(C(N)CCOc2cccc3ccccc23)cc1 (stereo not shown) [Example 16, oxalate]    Criterion not met
20. CN(C)C(CCOc1cccc2ccccc12)c1ccccc1Cl (stereo not shown) [Example 11, oxalate]    Criterion met
21. NC(CCOc1cccc2ccccc12)c1ccccc1 (stereo not shown) [Example 35, oxalate]    Criterion met
22. CN(C)C(CCOc1cccc2ccccc12)c1ccc(C(F)(F)F)cc1 (stereo not shown)    Criterion not met
23. CN(C)C(CCOc1cccc2ccccc12)c1ccc(F)cc1 (stereo not shown) [Example 25, oxalate]    Criterion met
24. NC(CCOc1cccc2ccccc12)c1ccc(Cl)cc1 (stereo not shown) [Example 14, oxalate]    Criterion not met
25. CN(C)C(CCOc1cccc2ccccc12)c1ccccc1C(F)(F)F (stereo not shown)    Criterion not met
26. CNC(CCOc1ccc(C)c2ccccc12)c1ccccc1 (stereo not shown) [Example 3, oxalate]    Criterion met
27. CN(C)C(CCOc1ccc(C(F)(F)F)c2ccccc12)c1ccccc1 (stereo not shown) [Example 29, oxalate]    Criterion not met
28. COc1ccc(C(CCOc2cccc3ccccc23)N(C)C)cc1 (stereo not shown) [Example 17, oxalate]    Criterion met
29. NC(CCOc1cccc2ccccc12)c1ccccc1C(F)(F)F (stereo not shown) [Example 6, oxalate]    Criterion not met
